Recorded viability, T/C, one value per entry.
Test system: 435261-313-R-J1-PDC complex spheroid viability
Test: Anticancer human tumor 435261-313-R-J1-PDC patient-derived colon adenocarcinoma cell line growth inhibition [GQUAD]
Conditions: second compound 10 µM; first compound 0.0999 µM; stronger effect = lower value
Dear colleague, please return just the value in %, with no unit written.

Tell me the measured viability, T/C of CC[C@@]1(O)C(=O)OCc2c1cc1n(c2=O)Cc2cc3c(CN(C)C)c(O)ccc3nc2-1 + CN(C)c1ccc(Nc2c3ccc(NC(=O)CCN4CCCC4)cc3nc3cc(NC(=O)CCN4CCCC4)ccc23)cc1 , please. 29.8

Would you kindly look at the next entry?
Tell me the measured viability, T/C of CC[C@@]1(O)C(=O)OCc2c1cc1n(c2=O)Cc2cc3c(CN(C)C)c(O)ccc3nc2-1 + Cc1cnc(CNC(=O)c2c(=O)c3ccc(N4CCCN(C)CC4)nc3n3c2sc2ccccc23)cn1 , please. 0.23

----------
Test system: 435261-313-R-J1-PDC complex spheroid viability
Assay: Anticancer human tumor 435261-313-R-J1-PDC cell line growth inhibition [GQUAD]; active = viability on the fitted dose curve at most 10% of control; inactive = the rest;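 further: spheroids exposed to the agents for seven days before readout; percent of vehicle control viability with DMSO wells as 100%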
Details: second compound 3.16 µM; first compound 0.0316 µM
Give your call using only these classes: active, inactive

Observe how each entry below is paired with its result.
Which result was noted for this compound in the test: COc1cccc2c1C(=O)c1c(O)c3c(c(O)c1C2=O)CC(O)(C(=O)CO)CC3OC1CC(N)C(O)C(C)O1 (stereo not given) + CN(C)c1ccc(Nc2c3ccc(NC(=O)CCN4CCCC4)cc3nc3cc(NC(=O)CCN4CCCC4)ccc23)cc1 inactive

Which result was noted for this compound in the test: CCc1c2c(nc3ccc(O)cc13)-c1cc3c(c(=O)n1C2)COC(=O)[C@]3(O)CC + Cc1cnc(CNC(=O)c2c(=O)c3ccc(N4CCCN(C)CC4)nc3n3c2sc2ccccc23)cn1 active

Which result was noted for this compound in the test: CC(=O)O[C@H]1C(=O)[C@@]2(C)[C@H]([C@H](OC(=O)c3ccccc3)[C@]3(O)C[C@H](OC(=O)[C@H](O)[C@@H](NC(=O)c4ccccc4)c4ccccc4)C(C)=C1C3(C)C)[C@]1(OC(C)=O)CO[C@@H]1C[C@@H]2O + Cc1[nH]c2ccc(F)cc2c1-c1nc2c3cccnc3c3ncccc3c2[nH]1 inactive

Which result was noted for this compound in the test: COc1ccc([C@@H](O)c2cc(-c3ncnc4cc(N5CCOCC5)ccc34)c(F)cc2Cl)nn1 + Cc1[nH]c2ccc(F)cc2c1-c1nc2c3cccnc3c3ncccc3c2[nH]1 inactive

Next:
Which result was noted for this compound in the test: Cn1ncnc1[C@H]1c2n[nH]c(=O)c3cc(F)cc(c23)N[C@@H]1c1ccc(F)cc1 + Cc1[nH]c2ccc(F)cc2c1-c1nc2c3cccnc3c3ncccc3c2[nH]1 inactive

Which result was noted for this compound in the test: COc1cc(C2c3cc4c(cc3C(OC3OC5COC(C)OC5C(O)C3O)C3COC(=O)C23)OCO4)cc(OC)c1O (stereo not given) + Cc1cnc(CNC(=O)c2c(=O)c3ccc(N4CCCN(C)CC4)nc3n3c2sc2ccccc23)cn1 inactive

Which result was noted for this compound in the test: CC[C@@]1(O)C(=O)OCc2c1cc1n(c2=O)Cc2cc3c(CN(C)C)c(O)ccc3nc2-1 + Cc1cnc(CNC(=O)c2c(=O)c3ccc(N4CCCN(C)CC4)nc3n3c2sc2ccccc23)cn1 inactive

Which result was noted for this compound in the test: COc1ncnc(C2CC2)c1-c1ncc2cnn(Cc3ccc(-c4nc(C(F)(F)F)cn4C(C)C)cc3)c2n1 + CN(C)c1ccc(Nc2c3ccc(NC(=O)CCN4CCCC4)cc3nc3cc(NC(=O)CCN4CCCC4)ccc23)cc1 inactive

Which result was noted for this compound in the test: CCCS(=O)(=O)Nc1ccc(F)c(C(=O)c2c[nH]c3ncc(-c4ccc(Cl)cc4)cc23)c1F + Cc1[nH]c2ccc(F)cc2c1-c1nc2c3cccnc3c3ncccc3c2[nH]1 inactive

Which result was noted for this compound in the test: C#Cc1c(F)ccc2cc(O)cc(-c3ncc4c(N5CC6CCC(C5)N6)nc(OCC56CCCN5CC(F)C6)nc4c3F)c12 (stereo not given) + Cc1cnc(CNC(=O)c2c(=O)c3ccc(N4CCCN(C)CC4)nc3n3c2sc2ccccc23)cn1 active
